experiment: Log D (comparison with previously disclosed compounds); type: physicochemical; details: pH 7.4
measurement-label: logD

For orientation, consider the following solved cases.
compound: Nc1ccc(-c2cccs2)cc1NC(=O)c1ccc(CN2CC[C@H](Nc3cccnc3)C2)cc1 [compound 249]
logD: 3.27
--
compound: COCCN1CCN(Cc2ccc(C(=O)Nc3cc(-c4cccs4)ccc3N)cc2)CC1 [compound 13]
logD: 2.22
--
compound: CN(C)[C@H]1CCN(Cc2ccc(C(=O)Nc3cc(-c4cccs4)ccc3N)cc2)C1 [compound 81]
logD: 2.11
--
compound: CCN(CC)Cc1ccc(C(=O)Nc2cc(-c3cccs3)ccc2N)cc1 [compound 79]
logD: 3.19
--
compound: Nc1ccc(-c2cccs2)cc1NC(=O)c1ccc(CN2CCN(Cc3ccccc3)CC2)cc1 [compound 91]
logD: 4.01
--
compound: Nc1ccc(-c2cccs2)cc1NC(=O)c1ccc(CN2CCN(c3ccccn3)CC2)cc1 [compound 89]
logD: 3.38
--
compound: Nc1ccc(-c2cccs2)cc1NC(=O)N1CCN(Cc2ccc3c(c2)OCO3)CC1 [compound 316]
logD: 2.32
--
compound: CC(C)N1CCN(c2ccc(C(=O)Nc3cc(-c4cccs4)ccc3N)cc2)CC1 [compound 102]
logD: 1.52

1: Nc1ccc(-c2cccs2)cc1NC(=O)c1ccc(CN2CCN(C3CCCC3)CC2)cc1 [compound 16]
2: CC(C)N1CCN(Cc2ccc(C(=O)Nc3cc(-c4cccs4)ccc3N)cc2)CC1 [compound 15]
3: Nc1ccc(-c2cccs2)cc1NC(=O)c1ccc(CN2CCC[C@H]2CN2CCCC2)cc1 [compound 86]
Q. rank_up(items): orders items by reported logD in ascending numerical order. Respond with an ordered listing of the labels, as requested.
A. 3, 2, 1
(3: 0.86, 2: 2.15, 1: 3.3)

I: Nc1ccc(-c2cccs2)cc1NC(=O)c1ccc(CN2CCC(N3CCOCC3)CC2)cc1 [compound 77]
II: CN(C)CCN(C)Cc1ccc(C(=O)Nc2cc(-c3cccs3)ccc2N)cc1 [compound 18]
III: Nc1ccc(-c2cccs2)cc1NC(=O)c1ccc(CN2CCCCC2)cc1 [compound 12]
Q. rank_up(items): orders items by reported logD in ascending numerical order. Respond with an ordered listing of the labels, as requested.
A. II, I, III

I: Nc1ccc(-c2ccccc2)cc1NC(=O)C1CCN(S(=O)(=O)c2ccc([N+](=O)[O-])cc2)CC1 [compound 320]
II: Nc1ccc(-c2cccs2)cc1NC(=O)c1ccc(N2CCC(N3CCCC3)CC2)cc1 [compound 105]
Q. Which record would sort first by descending logD, I or II ? Your choice should be expressed through its label.
A. I

A: Nc1ccc(-c2cccs2)cc1NC(=O)c1ccc(CN2CC[C@@H](O)C2)cc1 [compound 83]
B: CN(C)[C@H]1CC(=O)N(Cc2ccc(C(=O)Nc3cc(-c4cccs4)ccc3N)cc2)C1=O [compound 242]
Q. Kindly compare A with B and tell me which has the lower logD figure. Your choice should be expressed through its label.
A. B

# credit: patent US8598168B2
